Cited source: patent US20120207760A1

Biological target: recombinant homotrimeric HA, A/Vietnam/1203/04 H5N1 (Influenza A virus A/Vietnam/1203/04 (H5N1))
Assay: trimeric HA microarray, transfection set 4
Settings: remark: other sources report otherwise
recorded_endpoint: Trimeric HA Binding RLU (RLU)
Provide the reading as a plain figure in RLU.

Looking up TCN-504 (3251_K17) (antibody, V domains shown) VH: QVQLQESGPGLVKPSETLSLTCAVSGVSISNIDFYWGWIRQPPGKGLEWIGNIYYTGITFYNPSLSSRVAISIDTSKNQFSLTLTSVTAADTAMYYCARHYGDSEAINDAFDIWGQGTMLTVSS VL: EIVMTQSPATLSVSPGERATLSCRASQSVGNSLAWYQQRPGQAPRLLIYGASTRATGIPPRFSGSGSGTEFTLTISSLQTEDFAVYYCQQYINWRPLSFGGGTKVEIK , I found its Trimeric HA Binding RLU recorded as 25700
